Attribute: IC50
# System Tested: Tubulin (Bos taurus, UniProt Q6B856+Q862L2+Q862F3)
# Test: In vitro inhibition of tubulin polymerization measured as turbidity formed by centrifugation
# Assay type: protein assay
Where a SMILES comes first, the peptide text is derived from it. [ ]: non-standard residue; d: D form. The star is where a group is joined. X2 = COC1=CC(=O)N(C(=O)[C@@H](O*)C(C)C)[C@H]1Cc1ccccc1; NMe2Val = CC(C)[C@@H](C(=O)*)N(C)C; NMeV = CN[C@H](C(=O)O)C(C)C
API: value field is a number in µM; no unit string.

>  <Compound>
COC1=CC(=O)N(C(=O)[C@@H](OC(=O)[C@@H]2CCCN2C(=O)[C@@H]2CCCN2C(=O)[C@H](C(C)C)N(C)C(=O)[C@@H](NC(=O)[C@H](C(C)C)N(C)C)C(C)C)C(C)C)[C@H]1Cc1ccccc1 [DOLASTATIN 15] (NMe2Val-V[NMeV]PP-X2)

>  <IC50 / µM>
17

$$$$

Query compound follows.
What IC50 appears in the records for this compound with Tubulin (Bos taurus, UniProt Q6B856+Q862L2+Q862F3)? CC[C@H](C)[C@@H]([C@@H](CC(=O)N1CCC[C@H]1C(=O)O[C@H](C(=O)N1C(=O)C=C(OC)[C@@H]1Cc1ccccc1)C(C)C)OC)N(C)C(=O)[C@@H](NC(=O)[C@H](C(C)C)N(C)C)C(C)C
3.6

###

# System Tested: Tubulin (Bos taurus, UniProt Q6B856+Q862L2+Q862F3)
# Test: In vitro inhibition of tubulin polymerization measured as turbidity formed by centrifugation
# Format: protein assay
Where a SMILES comes first, the peptide text is derived from it. [ ]: non-standard residue; d: D form. The star is where a group is joined. Dolaproine = CO[C@@H]([C@@H]1CCCN1)[C@@H](C)C(=O)O; NMe2Val = CC(C)[C@@H](C(=O)*)N(C)C; X1 = c1ccc(CC(N*)c2nccs2)cc1; NMeV = CN[C@H](C(=O)O)C(C)C
Readout Type: IC50 (nM)
API: value field is a number in nM; no unit string.

>  <Molecule>
CO[C@H]([C@@H](C)C(=O)NC(Cc1ccccc1)c1nccs1)[C@@H]1CCCN1C(=O)[C@@H]1CCCN1C(=O)[C@H](C(C)C)N(C)C(=O)[C@@H](NC(=O)[C@H](C(C)C)N(C)C)C(C)C (stereo partly drawn) (NMe2Val-V[NMeV]P[Dolaproine]-X1)

>  <System Tested>
Tubulin (Bos taurus, UniProt Q6B856+Q862L2+Q862F3)

>  <Readout Type>
IC50

>  <Obs Value>
13000

$$$$
>  <Molecule>
CC[C@H](C)[C@@H]([C@@H](CC(=O)N1CCC[C@H]1[C@H](OC)[C@@H](C)C(=O)N[C@@H](Cc1ccccc1)c1nccs1)OC)N(C)C(=O)[C@@H](NC(=O)[C@H](C(C)C)N(C)C)C(C)C

>  <System Tested>
Tubulin (Bos taurus, UniProt Q6B856+Q862L2+Q862F3)

>  <Readout Type>
IC50

>  <Obs Value>
2200

$$$$

Query molecule follows.
// IC50 lookup, key: CC[C@]1(O)C[C@H]2CN(CCc3c([nH]c4ccccc34)[C@@](C(=O)OC)(c3cc4c(cc3OC)N(C=O)[C@H]3[C@@](O)(C(=O)OC)[C@H](OC(C)=O)[C@]5(CC)C=CCN6CC[C@]43[C@@H]65)C2)C1
1800
